The entries below come with measured RLU values attached.
# measured-target: human TAS2R1 (Homo sapiens, UniProt Q9NYW7)
# Construct: expressed in transfected cells; host or cells: HEK293T-Gα16gust44
# Sequence (Q9NYW7 1-299): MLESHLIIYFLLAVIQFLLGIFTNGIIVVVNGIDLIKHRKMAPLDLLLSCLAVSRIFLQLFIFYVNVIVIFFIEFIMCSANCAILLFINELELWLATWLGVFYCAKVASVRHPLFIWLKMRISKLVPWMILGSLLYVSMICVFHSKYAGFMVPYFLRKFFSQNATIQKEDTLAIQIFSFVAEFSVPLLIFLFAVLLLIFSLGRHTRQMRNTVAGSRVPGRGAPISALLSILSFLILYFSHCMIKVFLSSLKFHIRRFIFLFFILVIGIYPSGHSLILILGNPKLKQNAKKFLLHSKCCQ
# test-protocol: Calcium imaging assay (FLIPR), HEK293T-Gα16gust44 cells transfected with human TAS2R1
# Format: cell-based
# condition-set: Time 66.781 s
# Procedure: This set of bile acids was chosen because of their commercial availability in high purities, their diversity within the class of bile acids and their previous detection and quantitation in human blood. Stock solutions were prepared in DMSO. […] Measured data were negative control corrected by subtracting the signal of the mock-transfected cells and exported to Microsoft Excel using the FLIPR software ScreenWorks 4.2. […]
result-type: RLU (RLU)

compound="C[C@H](CCC(=O)NCCS(=O)(=O)O)[C@H]1CC[C@H]2[C@@H]3CC[C@@H]4C[C@H](O)CC[C@]4(C)[C@H]3CC[C@]12C [Taurolithocholic Acid, taurolithocholic acid]" measurement=712
compound="C[C@H](CCC(=O)NCCS(=O)(=O)O)[C@H]1CC[C@H]2[C@@H]3[C@H](O)C[C@@H]4C[C@H](O)CC[C@]4(C)[C@H]3C[C@H](O)[C@]12C [Taurocholic Acid, taurocholic acid]" measurement=435.147
compound="C[C@H](CCC(=O)NCC(=O)O)[C@H]1CC[C@H]2[C@@H]3[C@H](O)C[C@@H]4C[C@H](O)CC[C@]4(C)[C@H]3C[C@H](O)[C@]12C [Glycocholic Acid, glycocholic acid]" measurement=602.719
compound="C[C@H](CCC(=O)O)[C@H]1CC[C@H]2[C@@H]3CC[C@@H]4C[C@H](O)CC[C@]4(C)[C@H]3C[C@H](O)[C@]12C [Deoxycholic Acid, deoxycholic acid]" measurement=407.815

###

# measured-target: mouse Tas2r144 (Mus musculus)
# Construct: expressed in transfected cells; host or cells: HEK293T-Gα16gust44
# Sequence (Q7TQB8 whole entry): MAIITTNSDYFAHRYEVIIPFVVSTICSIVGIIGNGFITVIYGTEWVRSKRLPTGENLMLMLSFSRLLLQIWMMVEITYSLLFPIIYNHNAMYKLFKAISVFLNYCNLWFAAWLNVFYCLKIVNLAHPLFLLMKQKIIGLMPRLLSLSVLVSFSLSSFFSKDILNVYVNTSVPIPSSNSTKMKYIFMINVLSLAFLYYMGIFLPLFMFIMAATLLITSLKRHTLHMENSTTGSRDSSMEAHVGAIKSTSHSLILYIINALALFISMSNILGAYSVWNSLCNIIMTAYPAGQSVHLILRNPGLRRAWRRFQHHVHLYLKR
# test-protocol: Calcium imaging assay (FLIPR), HEK293T-Gα16gust44 cells transfected with mouse Tas2r144
# Type: cell-based
# condition-set: Time 86.781 s
Recorded RLU by entry
result-type: RLU (RLU)

molecule="C[C@H](CCC(=O)NCC(=O)O)[C@H]1CC[C@H]2[C@@H]3[C@H](O)C[C@@H]4C[C@H](O)CC[C@]4(C)[C@H]3C[C@H](O)[C@]12C [Glycocholic Acid, glycocholic acid]" result_type=RLU measurement=429.403
molecule="C[C@H](CCC(=O)NCCS(=O)(=O)O)[C@H]1CC[C@H]2[C@@H]3[C@H](O)C[C@@H]4C[C@H](O)CC[C@]4(C)[C@H]3C[C@H](O)[C@]12C [Taurocholic Acid, taurocholic acid]" result_type=RLU measurement=562.077
molecule="C[C@H](CCC(=O)NCCS(=O)(=O)O)[C@H]1CC[C@H]2[C@@H]3CC[C@@H]4C[C@H](O)CC[C@]4(C)[C@H]3CC[C@]12C [Taurolithocholic Acid, taurolithocholic acid]" result_type=RLU measurement=409.191
molecule="C[C@H](CCC(=O)O)[C@H]1CC[C@H]2[C@@H]3[C@H](O)C[C@@H]4C[C@H](O)CC[C@]4(C)[C@H]3C[C@H](O)[C@]12C [Cholic Acid, cholic acid]" result_type=RLU measurement=578.642

###

Reported RLU, fluorescence trace is given for each of the following molecules.
# measured-target: human TAS2R4 (Homo sapiens)
# Construct: expressed in transfected cells; host or cells: HEK293T-Gα16gust44
# Sequence (Q9NYW5 1-299): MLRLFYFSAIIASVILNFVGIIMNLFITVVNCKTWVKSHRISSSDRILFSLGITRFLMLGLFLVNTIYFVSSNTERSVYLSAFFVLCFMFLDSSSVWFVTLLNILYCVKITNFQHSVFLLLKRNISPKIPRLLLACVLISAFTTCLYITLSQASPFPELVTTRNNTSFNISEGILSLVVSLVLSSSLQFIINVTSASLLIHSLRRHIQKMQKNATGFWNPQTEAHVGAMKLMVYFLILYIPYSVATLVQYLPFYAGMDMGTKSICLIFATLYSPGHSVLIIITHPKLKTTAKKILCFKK
# test-protocol: Calcium imaging assay (FLIPR), HEK293T-Gα16gust44 cells transfected with human TAS2R4; further: test concentration or dose not given here
# Format: cell-based
# condition-set: Time (s) 134.781 (TCA, TLCA: 134.782)
result-type: RLU, fluorescence trace

molecule=C[C@H](CCC(=O)O)[C@H]1CC[C@H]2[C@@H]3[C@H](O)C[C@@H]4C[C@H](O)CC[C@]4(C)[C@H]3C[C@H](O)[C@]12C result_type="RLU, fluorescence trace" measurement="427.673 RLU"
molecule=C[C@H](CCC(=O)O)[C@H]1CC[C@H]2[C@@H]3CC[C@@H]4C[C@H](O)CC[C@]4(C)[C@H]3C[C@H](O)[C@]12C result_type="RLU, fluorescence trace" measurement="327.442 RLU"
molecule=C[C@H](CCC(=O)O)[C@H]1CC[C@H]2[C@@H]3[C@@H](O)C[C@@H]4C[C@H](O)CC[C@]4(C)[C@H]3CC[C@]12C result_type="RLU, fluorescence trace" measurement="209.298 RLU"

###

Entries annotated with measured RLU
# measured-target: mouse Tas2r108 (Mus musculus)
# Construct: expressed in transfected cells; host or cells: HEK293T-Gα16gust44
# Sequence (Q9JKT3 1-297): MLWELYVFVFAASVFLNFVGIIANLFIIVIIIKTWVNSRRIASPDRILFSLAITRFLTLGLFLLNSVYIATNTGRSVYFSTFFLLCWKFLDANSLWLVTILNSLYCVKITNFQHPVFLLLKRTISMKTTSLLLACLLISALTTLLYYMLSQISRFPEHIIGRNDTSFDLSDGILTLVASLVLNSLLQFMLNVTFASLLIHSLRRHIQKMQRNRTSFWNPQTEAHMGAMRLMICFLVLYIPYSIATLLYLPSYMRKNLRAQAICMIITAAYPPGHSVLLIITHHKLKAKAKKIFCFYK
# test-protocol: Calcium imaging assay (FLIPR), HEK293T-Gα16gust44 cells transfected with mouse Tas2r108
# Type: cell-based
# condition-set: Time 167.562 s
result-type: RLU

molecule=C[C@H](CCC(=O)O)[C@H]1CC[C@H]2[C@@H]3CC[C@@H]4C[C@H](O)CC[C@]4(C)[C@H]3C[C@H](O)[C@]12C measurement="509.176 RLU"
molecule=C[C@H](CCC(=O)O)[C@H]1CC[C@H]2[C@@H]3[C@H](O)C[C@@H]4C[C@H](O)CC[C@]4(C)[C@H]3C[C@H](O)[C@]12C measurement="184.375 RLU"
molecule=C[C@H](CCC(=O)NCC(=O)O)[C@H]1CC[C@H]2[C@@H]3[C@H](O)C[C@@H]4C[C@H](O)CC[C@]4(C)[C@H]3C[C@H](O)[C@]12C measurement="179.231 RLU"
molecule=C[C@H](CCC(=O)NCCS(=O)(=O)O)[C@H]1CC[C@H]2[C@@H]3[C@H](O)C[C@@H]4C[C@H](O)CC[C@]4(C)[C@H]3C[C@H](O)[C@]12C measurement="219.02 RLU"

###

Recorded RLU, one value per entry.
# measured-target: human TAS2R1 (Homo sapiens, UniProt Q9NYW7)
# Construct: expressed in transfected cells; host or cells: HEK293T-Gα16gust44
# test-protocol: Calcium imaging assay (FLIPR), HEK293T-Gα16gust44 cells transfected with human TAS2R1
# Assay type: cell-based
# condition-set: Time 18.015 s
result-type: RLU

molecule="C[C@H](CCC(=O)O)[C@H]1CC[C@H]2[C@@H]3[C@H](O)C[C@@H]4C[C@H](O)CC[C@]4(C)[C@H]3C[C@H](O)[C@]12C [Cholic Acid, cholic acid]" measured_target="human TAS2R1 (Homo sapiens, UniProt Q9NYW7)" measurement="-33.1938 RLU"
molecule="C[C@H](CCC(=O)O)[C@H]1CC[C@H]2[C@@H]3CC[C@@H]4C[C@H](O)CC[C@]4(C)[C@H]3CC[C@]12C [Lithocholic Acid, lithocholic acid]" measured_target="human TAS2R1 (Homo sapiens, UniProt Q9NYW7)" measurement="1.1121 RLU"
molecule="C[C@H](CCC(=O)O)[C@H]1CC[C@H]2[C@@H]3[C@H](O)C[C@@H]4C[C@H](O)CC[C@]4(C)[C@H]3CC[C@]12C [Chenodeoxycholic Acid, chenodeoxycholic acid]" measured_target="human TAS2R1 (Homo sapiens, UniProt Q9NYW7)" measurement="0.1896 RLU"
molecule="C[C@H](CCC(=O)O)[C@H]1CC[C@H]2[C@@H]3[C@@H](O)C[C@@H]4C[C@H](O)CC[C@]4(C)[C@H]3CC[C@]12C [Ursodeoxycholic Acid, ursodeoxycholic acid]" measured_target="human TAS2R1 (Homo sapiens, UniProt Q9NYW7)" measurement="-16.5405 RLU"
